Source: ChEMBL document CHEMBL5608113

- Tested on: Colon cancer organoid
- Protocol summary: Targeting of F14 CAF-induced therapy resistance in O14 CRC organoid-stroma co-culture. Cell viability is reported with Gefitinib.
- Assay type: functional, Homo sapiens
- Condition details: Homo sapiens, Concentration 1 uM; read-out: Cell Viability

>  <Compound>
COc1ccc2cc(OCC3(C(=O)O)CN(C(=O)c4ccc(F)cc4)C3)ccc2c1

>  <Measurement unit>
%

>  <viability at 1 µM>
43

$$$$
>  <Compound>
Cc1c[nH]c2nccc(Oc3c(F)cc(Nc4cc(Cl)nc(N)n4)cc3F)c12

>  <Measurement unit>
%

>  <viability at 1 µM>
30.6

$$$$
>  <Compound>
O=C(Nc1ccc(-n2nc(-c3cccnc3)cc2C(F)(F)F)cn1)c1ccc(-c2ccccc2)c(F)c1

>  <Measurement unit>
%

>  <viability at 1 µM>
24.6

$$$$
>  <Compound>
Cc1cc(Nc2nccc(C)n2)cc(-c2cnc([C@@]3(O)CC[C@H](C(=O)O)C(C)(C)C3)s2)c1

>  <Measurement unit>
%

>  <viability at 1 µM>
32.9

$$$$
>  <Compound>
O=C(c1ccc(F)cc1)N1CC(COc2ccc(Br)cc2)(C(=O)O)C1

>  <Measurement unit>
%

>  <viability at 1 µM>
36.4

$$$$
>  <Compound>
CCCCN(CCCC)C(=O)CN1C[C@H](c2cc(OC)c3c(c2)OCO3)[C@@H](C(=O)O)[C@@H]1CC(C)(C)CCC

>  <Measurement unit>
%

>  <viability at 1 µM>
44.1

$$$$
>  <Compound>
Nc1cnc(N2CCc3cc(S(=O)(=O)Nc4c(F)cc(Cl)cc4F)cc(N4CCCC4=O)c32)nc1 [TP-020n]

>  <Measurement unit>
%

>  <viability at 1 µM>
71.3

$$$$
>  <Compound>
CCCOc1ccc([C@H]2[C@H](C(=O)O)[C@@H](c3ccc4c(c3)OCO4)CN2CC(=O)Nc2c(CC)cccc2CC)cc1

>  <Measurement unit>
%

>  <viability at 1 µM>
27.4

$$$$
>  <Compound>
O=C(NCCCC1CCCCC1)c1ccc(CNC(=O)c2cnn(-c3ccccc3)c2C(F)(F)F)cc1

>  <Measurement unit>
%

>  <viability at 1 µM>
23.5

$$$$
>  <Compound>
CS(=O)(=O)N1CCCC(NC(=O)[C@H](CCC2CCCCC2)NC(=O)c2ccc(CNC(=O)c3cnc4ccccn34)cc2)C1 (stereo partly specified)

>  <Measurement unit>
%

>  <viability at 1 µM>
37.1

$$$$
>  <Compound>
Cc1cc(C)c(-n2ccn3nc(-c4cccnc4)cc23)cc1NC(=O)c1cc(C#N)cc(S(F)(F)(F)(F)F)c1

>  <Measurement unit>
%

>  <viability at 1 µM>
58.7

$$$$
>  <Compound>
NC(=O)c1ccc2nc(-c3ccc(C4(N)CCC4)cc3)c(-c3ccccc3)n2n1

>  <Measurement unit>
%

>  <viability at 1 µM>
52.1

$$$$
>  <Compound>
CN(C)C(=O)Cn1cc(-c2nc([C@@](C)(c3ccc(-c4cnc(N)nc4)cc3)C3CC3)no2)cn1

>  <Measurement unit>
%

>  <viability at 1 µM>
56.8

$$$$
>  <Compound>
COc1cccc(CNC(=O)c2nc3scc(COCc4ccc(C(=O)O)cc4)c3c(=O)[nH]2)c1 [T-26c]

>  <Measurement unit>
%

>  <viability at 1 µM>
60

$$$$
>  <Compound>
CCOC(=O)c1cc2cc(-c3cc(C(=O)NCc4ccc(C(=O)O)cc4)nn3C)ccc2[nH]1

>  <Measurement unit>
%

>  <viability at 1 µM>
59.3

$$$$
>  <Compound>
N#Cc1ccc(Nc2ccc3[nH]c(=O)[nH]c3c2)c(Cl)c1 [TP-021n]

>  <Measurement unit>
%

>  <viability at 1 µM>
59.2

$$$$
